I'd be grateful if you could share measured GI50 for these entries.

Problem: Lab note: need GI50 for O=C(CSc1nc2ccc([N+](=O)[O-])cc2[nH]1)Nc1ccc([N+](=O)[O-])cc1 on MDA-MB-435, anyone have it?
Solution: 2.66 µM

Problem: Any idea what GI50 came out for CC(=O)N[C@@H](Cc1ccc(OP(=O)(O)O)cc1)C(=O)N[C@H]1CCC(=O)N2CCC[C@@H](C(=O)NCc3cccc4ccccc34)N2C1=O on MDA-MB-435?
Solution: > 25 µM

Problem: Param readout= GI50; system= MDA-MB-435; entry= Oc1c(CCl)cc(Cl)cc1Cc1cc(Cl)cc(Cc2cc(Cl)cc(CCl)c2O)c1O ; returns value.
Solution: 3.89 µM

====

Tested on: TK-10 renal
Assay: NCI tumour cell line growth inhibition, 48 h
Task for the reader: assign each of the following compounds its reported TGI.
Use µM as the unit, but write only the number.

Problem: Entry COc1cc2c3c(n(CCCNC(C)(C)CO)c(=O)c2cc1OC)-c1cc2c(cc1C3=O)OCO2 : reported TGI = ?
Solution: 38.6

Problem: Item under review: COc1c(O)cc2c(c1CC=C(C)C)OC(=O)c1c(cc(O)c(CC=C(C)C)c1O)O2 . Reported TGI?
Solution: 11.7

Problem: For the compound Cc1cc(C)c2c(=O)cc(-c3ccccc3)[nH]c2c1 , what TGI is on record?
Solution: 22.8

Problem: Please give the measured TGI for this compound: C/C(CC(O)(C(F)(F)Cl)C(F)(F)Cl)=N\Nc1ccccc1
Solution: 95.3

Problem: Which measured TGI value corresponds to O=C(/C=C/c1cccnc1)c1ccccc1 ?
Solution: 27.1

Problem: So what does the record say about TGI for CC(C)c1ccc2c(c1)CCC1C(C)(CN)CCCC21C (configuration not stated) ?
Solution: 3.08

Problem: Requested read-out: TGI. Entry: Cc1c(/C=N/NC(=S)Nc2ccc([N+](=O)[O-])cc2)c(=O)n(-c2ccccc2)n1C
Solution: 26.3

Problem: Which TGI is reported for this compound? CCN1CCC(O)(/C=C/c2cccc(C)c2)C(C(=O)/C=C/c2cccc(C)c2)C1 (configuration not stated)
Solution: 3.92

Problem: // lookup TGI for NCCSC1(O)C(=O)c2ccccc2-c2ccccc21 (configuration not stated)
Solution: 3.26

Problem: Given CN1CCN(Cn2nc(-c3ccccc3)n(/N=C/c3ccc(-c4ccc(Cl)cc4Cl)o3)c2=S)CC1 , state its recorded TGI.
Solution: 29.7

Problem: Given the entry CC(=O)OCc1cc(OC(C)=O)c2cc3c(OC(C)=O)cccc3c(OC(C)=O)c2c1 , report its measured TGI.
Solution: 33

Problem: Fill in: TGI of O=C(CSc1nc(-c2ccccc2)c(-c2ccccc2)[nH]1)N/N=C/c1ccc([N+](=O)[O-])cc1 is ___
Solution: 39.4

Problem: Entry Fc1ccc(-c2nn3c(COc4ccccc4Cl)nnc3s2)cc1Oc1ccccc1 : reported TGI = ?
Solution: 47.1

Problem: Fill in: TGI of Cc1ccc(S(=O)OC2c3ccccc3Cc3ccccc32)cc1 (configuration not stated) is ___
Solution: 64.3

Problem: Report TGI for O=C(NC(=S)Nc1ccc(-c2nc3ccccc3[nH]2)cc1)c1ccc2ccccc2c1 please.
Solution: 8.44

Problem: Endpoint output: TGI of CCCCN(CCCC)C1(c2cc3ccccc3s2)CCCCC1 . Value?
Solution: 31.2

Problem: # input compound: COc1cc2cc(Oc3ccc(NC(=O)Nc4ccc(F)c(C(F)(F)F)c4)cc3)c(C)nc2cc1OCCN1CCOCC1 ; wanted: its TGI
Solution: 25.1

Problem: Please look up its TGI: COc1cc2c(OC)c3cc(C)oc(=O)c3c(O)c2c(O)c1-c1c(OC)cc2c(OC)c3cc(C)oc(=O)c3c(O)c2c1O
Solution: 66.8

Problem: GET /values?readout=TGI&item= O=C(NCCCNc1cc(-c2cn(-c3ccccc3)nc2-c2cccc(O)c2)ccn1)c1ccc(F)cc1
Solution: 26.3
